- System Tested: SMAD3 MH1 (Homo sapiens, UniProt P84022 1-132)
- Sequence (P84022 1-132): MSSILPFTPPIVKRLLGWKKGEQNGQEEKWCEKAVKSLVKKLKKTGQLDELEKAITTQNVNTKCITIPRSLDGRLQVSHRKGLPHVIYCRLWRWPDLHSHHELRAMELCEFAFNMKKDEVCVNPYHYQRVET
- Assay Comment: EMSA; Hill 1.8; EMSA: 25 mM Tris-HCl (pH not given for binding buffer; RNA stock pH 7.5), 115 mM KCl, 1 mM MgCl2, 1 mM DTT, 20 ng/ul poly I:C, 0.1 mg/ml BSA, 10% glycerol, on ice 2 h; 0.5x TBE gel at 4 C
- Condition Description: protein: recombinant; tags: 6xHis-SUMO cleaved; label: 5' 32P (EMSA); four-way junction with bulged stem
Outcome Measure: Kd
The answer should read as a number with its unit following.

Kd for 18 ai5-gamma D3 (structured_RNA) RNA: GGGUAUAAAAAGCUAAUGCCAUAUUGUAAUGAUAUGGAUAAGAAUUAUUAUUCUAAAGAUGAAAAUCUGCUAACUUAUACUG is 190 nM
